Tested on: NCI-H322M lung
Assay: NCI-60 one-dose screen, 48 h (100 = growth as untreated, 0 = no growth, -100 = all killed)
Conditions: 10 µM unless noted
About 83,000 compounds went through this panel and 20% of them were active in at least one assay; those are over-represented in the sample as a whole. Active and inactive are the calls of the source. The calls were made as follows: active = growth percent below 10; inactive = the rest.
Property: growth

• C=C(C)[C@@H]1CC[C@]2(C(=O)N3CCCNCC3)CC[C@]3(C)[C@H](CC[C@@H]4[C@@]5(C)CCC(=O)C(C)(C)[C@@H]5CC[C@]43C)[C@@H]12 = 102% (inactive)
• NCCNc1nc(-c2ccccc2)nc2nc(-c3ccccc3)oc12 = 104% (inactive)
• COc1ccc2[nH]cc(-c3nc(-c4c[nH]c5ncccc45)cs3)c2c1 = 44.5% (inactive)

Okay, now this compound:
Exercise: Using the record for `C=C1C(=O)O[C@H]2[C@H]1CC/C(Cn1cc(-c3ccc(F)cc3)nn1)=C\CC[C@@]1(C)O[C@@H]21` , report its growth.
Solution: 80.6% (inactive)
